tested on: HL-1; experiment: relative cell viability (CellTiter-Glo) vs DMSO control (% of DMSO control); higher = more viable cells; details: oxygen condition: normoxia 72 h; 5000 nM
Give measured relative cell viability for each item. Keep answers brief.
Numbers only.

Field: relative cell viability. Fill in for each record below.
1. CCCNCC(O)COc1ccccc1C(=O)CCc1ccccc1 (centres undefined) [Propafenone]
2. Cc1[nH]c(=O)c(C#N)cc1-c1ccncc1 [Milrinone]
3. Nc1nc(F)nc2c1ncn2[C@@H]1O[C@H](COP(=O)(O)O)[C@@H](O)[C@@H]1O [Fludarabine Phosphate]
4. NC(=O)OCC(COC(N)=O)c1ccccc1 [Felbamate]
5. CN(C)CCOC(C)(c1ccccc1)c1ccccn1 (centres undefined) [Doxylamine Succinate]

OUTPUT:
1: 103; 2: 113; 3: 111; 4: 110; 5: 123

I would be grateful if you could provide relative cell viability for each of the following entries.
1. C[C@]12C=CC(=O)N[C@@H]1CC[C@@H]1[C@@H]2CC[C@]2(C)[C@@H](C(=O)Nc3cc(C(F)(F)F)ccc3C(F)(F)F)CC[C@@H]12 [Dutasteride]
2. CC(C)OC(=O)C(C)(C)Oc1ccc(C(=O)c2ccc(Cl)cc2)cc1 [Fenofibrate]

OUTPUT:
1. 99.6
2. 112

For each of the molecules below, note its relative cell viability.
1. O=C(O)c1ccc(NC(=O)[C@H](Cc2ccc(O)cc2)NC(=O)c2ccccc2)cc1 [Bentiromide]
2. N#Cc1ccc(C(c2ccc(C#N)cc2)n2cncn2)cc1 [Letrozole]

OUTPUT:
1. 111
2. 110

---

system: HL-1; experiment: relative cell viability (CellTiter-Glo) vs DMSO control (% of DMSO control); higher = more viable cells; conditions: oxygen condition: normoxia 72 h; 5000 nM
Counter-ions that a name gives are not always drawn.
quantity: relative cell viability
Answers are plain numbers.

compound | relative cell viability
NS(=O)(=O)c1cc2c(cc1Cl)NC(C(Cl)Cl)NS2(=O)=O (stereo not drawn) [Trichlormethiazide] | 114
Cc1onc(-c2ccccc2)c1-c1ccc(S(N)(=O)=O)cc1 | 111
CCOC(=O)[C@H](CCc1ccccc1)N[C@H]1CCCN2CCC[C@@H](C(=O)O)N2C1=O [Cilazapril monohydrate] | 115
CNC(=O)c1ccccc1Sc1ccc2c(/C=C/c3ccccn3)n[nH]c2c1 | 111
Cc1ccccc1N1C(=O)c2cc(S(N)(=O)=O)c(Cl)cc2NC1C (stereo not drawn) | 116

// for each compound below, give its relative cell viability
1. CCN(CC)CC#CCOC(=O)C(O)(c1ccccc1)C1CCCCC1 (stereo not drawn) [Oxybutynin chloride]
2. N=C(N)Nc1ccc(C(=O)Oc2ccc3cc(C(=N)N)ccc3c2)cc1 [Nafamostat mesylate]
3. C[C@@H](O)[C@H]1C(=O)N2C(C(=O)OCOC(=O)C(C)(C)C)=C(SC3CN(C4=NCCS4)C3)[C@H](C)[C@H]12

OUTPUT:
107
107
93.4

---

Assign relative cell viability to each entry below.
system: HL-1; assay: relative cell viability (CellTiter-Glo) vs DMSO control (% of DMSO control); higher = more viable cells; conditions: oxygen condition: normoxia 72 h; 200 nM
One number for each entry.

Example compounds with recorded relative cell viability:
compound | value
CC[C@H](C)[C@H](N)C1=N[C@H](C(=O)N[C@@H](CC(C)C)C(=O)N[C@H](CCC(=O)[O-])C(=O)N[C@H](C(=O)N[C@H]2CCCCNC(=O)[C@H](CC(N)=O)NC(=O)[C@@H](CC(=O)[O-])NC(=O)[C@H](Cc3cnc[nH]3)NC(=O)[C@@H](Cc3ccccc3)NC(=O)[C@H]([C@@H](C)CC)NC(=O)[C@@H](CCCN)NC2=O)[C@@H](C)CC)CS1.[Zn+2] [Bacitracin zinc] | 107
C=CCNC(N)=S [Allylthiourea] | 100

Now look at this one.
INPUT: Value lookup for relative cell viability; key = NCCC(O)(P(=O)(O)O)P(=O)(O)O [Pamidronate Disodium]
OUTPUT: 99.9
